# MEASUREMENT_TARGET: Nuclear factor erythroid 2-related factor 2 (Homo sapiens)
# EXPERIMENT_NOTES: Activation of NRF2 in human AREc32 cells incubated for 24 hrs by luciferase reporter gene assay
# Format: cell-based
# SETUP_CONDITIONS: filed as activator
MEASUREMENT_TYPE: CD (µM)
Report the value in µM with no unit label.

Task: Give the value of CD reported for the following: C=CCNC(=O)/C=C/c1c[nH]c2ccc(OC)cc12
Result: 27.4

Task: Give the value of CD reported for the following: C#CCn1nc(/C=C/c2c[nH]c3ccc(OC)cc23)oc1=O
Result: 15.1

Task: Give the value of CD reported for the following: C#CCNC(=O)/C=C/c1c[nH]c2ccc(OC)cc12
Result: 1.76

Task: Give the value of CD reported for the following: C[S+]([O-])CCCCN=C=S (centres undefined)
Result: 0.54
